- Target: Cathepsin S (Homo sapiens)
- Sequence (P25774 whole entry): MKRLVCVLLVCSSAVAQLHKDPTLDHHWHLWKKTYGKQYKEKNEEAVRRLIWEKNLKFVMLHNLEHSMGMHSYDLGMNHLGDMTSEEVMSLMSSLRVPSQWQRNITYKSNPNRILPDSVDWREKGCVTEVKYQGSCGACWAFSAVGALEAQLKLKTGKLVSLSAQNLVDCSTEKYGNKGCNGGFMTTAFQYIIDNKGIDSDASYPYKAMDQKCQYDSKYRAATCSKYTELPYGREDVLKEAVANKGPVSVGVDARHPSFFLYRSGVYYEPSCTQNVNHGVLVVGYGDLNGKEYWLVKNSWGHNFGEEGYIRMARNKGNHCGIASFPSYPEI
- Measurement notes: Inhibitory constant against human cathepsin S using Z-Val-Val-Arg-AMC substrate
- Condition description: read-out: Ki app
pKi: −log10 of the molar value.
Property name: pKi

- Structure smiles: "CC(C)(C)N1CCN(c2nc(-c3ccc(C(=O)NC4(C(=O)NCC#N)CCCCC4)cc3)cs2)CC1"
  pKi: 4.72

[I] N#CCNC(=O)C1(NC(=O)c2ccc(-c3csc(OC4CCNCC4)n3)cc2)CCCCC1
[II] CC(C)NC1CCN(c2nc(-c3ccc(C(=O)NC4(C(=O)NCC#N)CCCCC4)cc3)cs2)CC1
Data request: Among I and II , which shows a numerically higher pKi result? Write down the label of the entry you select.
Data returned: II

[a] N#CCNC(=O)[C@@H](NC(=O)OCc1ccccc1)c1ccccc1
[b] COCCN1CCN(c2nc(-c3ccc(C(=O)NC4(C(=O)NCC#N)CCCCC4)cc3)cs2)CC1
Data request: Look at a and b . Which one has the lower recorded pKi number? Answer format: the label of the selected item.
Data returned: b
(b: 4.70, a: 5.46)

[A] CC(C)(C)C[C@H](NC(=O)OCc1ccccc1)C(=O)NCC#N
[B] N#CCNC(=O)C1(NC(=O)c2ccc(-c3csc(N4CCOCC4)n3)cc2)CCCCC1
Data request: Which item exceeds the other in pKi, A or B ? Kindly state the label of the option you pick.
Data returned: A
(A: 6.82, B: 4.89)

Data credit: ChEMBL document CHEMBL1141198
